These measurements were taken from patent US9822130B2.

- assay-target: sGC α1/β1 heterodimer stably expressed in CHO-K1 cell line (CHO-K1/sGC) (Homo sapiens, UniProt Q02108+Q02153)
- Construct: expressed in transfected cells
- Sequence (Q02108 1-690): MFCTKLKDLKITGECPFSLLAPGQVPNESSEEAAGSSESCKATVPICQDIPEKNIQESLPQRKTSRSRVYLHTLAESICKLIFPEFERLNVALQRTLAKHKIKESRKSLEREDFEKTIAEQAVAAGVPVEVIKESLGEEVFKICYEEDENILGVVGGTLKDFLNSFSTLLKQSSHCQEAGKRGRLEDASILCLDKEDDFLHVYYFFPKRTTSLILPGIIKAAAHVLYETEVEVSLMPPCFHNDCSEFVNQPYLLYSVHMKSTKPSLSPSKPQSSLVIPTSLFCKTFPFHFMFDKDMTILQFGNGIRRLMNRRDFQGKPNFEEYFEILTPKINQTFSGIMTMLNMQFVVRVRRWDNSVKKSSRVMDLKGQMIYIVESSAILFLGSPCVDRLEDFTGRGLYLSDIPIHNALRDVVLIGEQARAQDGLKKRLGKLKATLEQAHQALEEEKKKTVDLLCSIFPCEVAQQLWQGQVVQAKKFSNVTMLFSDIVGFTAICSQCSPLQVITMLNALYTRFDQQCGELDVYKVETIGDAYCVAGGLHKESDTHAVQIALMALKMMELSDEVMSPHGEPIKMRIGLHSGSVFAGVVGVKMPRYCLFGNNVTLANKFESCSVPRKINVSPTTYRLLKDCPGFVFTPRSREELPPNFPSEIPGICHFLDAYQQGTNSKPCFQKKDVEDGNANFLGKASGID
- Sequence (Q02153 1-619): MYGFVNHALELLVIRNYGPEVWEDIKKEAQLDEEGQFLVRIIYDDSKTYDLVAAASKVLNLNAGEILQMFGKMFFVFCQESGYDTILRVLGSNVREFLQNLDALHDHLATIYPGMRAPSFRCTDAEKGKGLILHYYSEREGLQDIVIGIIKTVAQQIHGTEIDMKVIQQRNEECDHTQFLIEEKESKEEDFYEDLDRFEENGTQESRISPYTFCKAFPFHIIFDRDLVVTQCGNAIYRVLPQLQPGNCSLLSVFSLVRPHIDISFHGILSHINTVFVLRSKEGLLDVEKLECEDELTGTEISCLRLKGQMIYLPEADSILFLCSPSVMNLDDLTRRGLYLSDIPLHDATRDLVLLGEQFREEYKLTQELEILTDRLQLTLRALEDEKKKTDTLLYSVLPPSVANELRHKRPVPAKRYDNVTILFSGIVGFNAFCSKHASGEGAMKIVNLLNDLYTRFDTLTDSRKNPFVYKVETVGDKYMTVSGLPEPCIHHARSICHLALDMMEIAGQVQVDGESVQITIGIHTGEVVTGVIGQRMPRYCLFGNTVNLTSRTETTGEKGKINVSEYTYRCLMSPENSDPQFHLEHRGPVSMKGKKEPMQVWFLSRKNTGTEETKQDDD
- method: Cell-based sGC Functional Assay (CASA Assay), cGMP generation
- condition-description: CHO-K1/sGC cells, 1 hr at 37° C., cGMP by HTRF, 4P fit; presence or absence of 1 μM DETA-NO not given; read-out: IP (nM) (inflection point)
Decide using EC50 alone. Strictly below 100 nM: satisfied. Equal to or above 100 nM: not satisfied.

| compound | assigned-label |
| --- | --- |
| CC1(c2ccc(Cl)cn2)C(=O)Nc2nc(-c3cn4ncnc4c(CCC(F)(F)F)n3)nc(N)c21 (centres unmarked) [Example 79A] | not satisfied |

Consider now this further compound.
Incoming: Check if EC50 falls below 100 nM for CC1(c2ccc(Cl)c(F)c2)C(=O)Nc2nc(-c3cn4ncnc4c(CCCC(F)(F)F)n3)nc(O)c21 (centres unmarked) [Example 138B] .
Outgoing: not satisfied
